- system.tested: T1, THAP zinc finger of hTHAP1 (C62S/C67S) (Homo sapiens, UniProt Q9NVV9 1-81, C62S;C67S)
- T1 sequence: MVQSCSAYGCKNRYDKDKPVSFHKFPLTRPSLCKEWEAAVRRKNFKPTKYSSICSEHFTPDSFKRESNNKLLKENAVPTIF
- method.notes: fluorescence anisotropy
property: Kd (µM)
Report the value in µM with no unit label.

Req: Record request: Kd value, item rrm1 16-bp (THABS) (dsDNA) DNA 1: GCTTGTGTGGGCAGCG DNA 2: CGCTGCCCACACAAGC
Resp: 0.48
